Recorded inhibition of SARS-CoV-2 cytopathic effect by entry
- System: Vero E6 infected with SARS-CoV-2
- ASSAY NAME: inhibition of SARS-CoV-2 cytopathic effect; higher = more antiviral protection, active = above 15
- CONDITION NOTES: 8.33 nM; 48 h
MEASURE NAME: inhibition of SARS-CoV-2 cytopathic effect

>>> value_observed("NCC(CS(=O)(=O)O)c1ccc(Cl)cc1 (stereo not drawn)")
"0.42% (inactive)"
>>> value_observed("CCOC(=O)C1=C(C)NC(C)=C(C(=O)OCC)C1c1ccccc1/C=C/C(=O)OC(C)(C)C")
"-0.72% (inactive)"
>>> value_observed("O=C1c2c(O)cccc2Cc2cccc(O)c21")
"-2.05% (inactive)"
>>> value_observed("CCOc1nc2cccc(C(=O)O)c2n1Cc1ccc(-c2ccccc2-c2noc(=O)[nH]2)cc1")
"1.58% (inactive)"
>>> value_observed("O=C(Nc1ccc(F)cc1)N1CCc2ccccc2[C@@H]1c1ccc(C(F)(F)F)cc1")
"-1.41% (inactive)"
>>> value_observed("c1cncc(CN2CCC(n3ncc4c(N5CCOCC5)nc(-c5ccc6[nH]ccc6c5)nc43)CC2)c1")
"0.29% (inactive)"
>>> value_observed("COc1cc(C(=O)NS(=O)(=O)c2ccccc2C)ccc1Cc1cn(C)c2ccc(NC(=O)OC3CCCC3)cc12")
"-0.73% (inactive)"
>>> value_observed("CCC[N+]12[C@H](O)[C@@H](CC)[C@@H]3C[C@H]1[C@@H]1N(C)c4ccccc4[C@]14C[C@H]2[C@@H]3[C@H]4O")
"-1.28% (inactive)"
>>> value_observed("CN(C)CC[C@@]1(c2ccc(Cl)cc2)Cc2ccccc2C(=O)O1 (racemic)")
"-2.36% (inactive)"
>>> value_observed("CC(C)(C)Nc1nc(Nc2ccc(C(N)=O)cc2)cc(N)c1C#N")
"-2.29% (inactive)"
>>> value_observed("O=C(/C=C/c1ccc(CN(CCO)CCc2c[nH]c3ccccc23)cc1)NO")
"-2.54% (inactive)"
>>> value_observed("CCc1nc(C(N)=O)c(Nc2ccc(N3CCC(N4CCN(C)CC4)CC3)c(OC)c2)nc1NC1CCOCC1")
"0.02% (inactive)"
>>> value_observed("CCN1CCN(Cc2ccc(Nc3ncc(F)c(-c4cc(F)c5nc(C)n(C(C)C)c5c4)n3)nc2)CC1")
"-0.27% (inactive)"
>>> value_observed("NS(=O)(=O)c1nn2cc(-c3ccccc3)nc2s1")
"1.76% (inactive)"
>>> value_observed("COc1ccc(C(Cl)=C(c2ccc(OC)cc2)c2ccc(OC)cc2)cc1")
"0.16% (inactive)"
>>> value_observed("NC(=O)c1cc([N+](=O)[O-])cc([N+](=O)[O-])c1 [nitromide]")
"1.05% (inactive)"
>>> value_observed("Cc1ccc(-c2ccc(F)cc2COc2ccc(CCC(=O)O)cc2)cc1")
"0.79% (inactive)"
>>> value_observed("Cc1cc(-n2c(=O)[nH]c(=O)n(C)c2=O)ccc1Oc1ccc(SC(F)(F)F)cc1")
"-0.85% (inactive)"
